# Tested on: mice
# protocol.summary: Simple acute toxicity test by intravenous injection in mice
# Type: in vivo, Male ddy mice
# cond: 500 mg/kg i.v., 1 hr, 3 mice
measurement.label: Number of death with the elapse of time

// query Number of death with the elapse of time value for entry CC(=O)N[C@H]1[C@H]([C@H](O)[C@H](O)CO)OC(O)(C(=O)[O-])C[C@@H]1O.[K+] (stereo partly shown) [Potassium N-acetylneuraminate]
0

May I ask what Number of death with the elapse of time has been recorded for CC(=O)N[C@H]1[C@H]([C@H](O)[C@H](O)CO)OC(O)(C(=O)[O-])C[C@@H]1O.[Li+] (stereo partly shown) [Lithium N-acetylneuraminate] ?
0

What does the record list as Number of death with the elapse of time for CC(=O)N[C@H]1[C@H]([C@H](O)[C@H](O)CO)OC(O)(C(=O)O)C[C@@H]1O (stereo partly shown) [Magnesium N-acetylneuraminate] ?
0

I am curious: what Number of death with the elapse of time value has been reported for CC(=O)N[C@H]1[C@H]([C@H](O)[C@H](O)CO)OC(O)(C(=O)O)C[C@@H]1O (stereo partly shown) [Barium N-acetylneuraminate] ?
3
